B1: NET1 (parent)
chain: RVRPLARVTSLANLISPVRNGAVR

- Variants of: B1
- measurement_protocol: protein stability index of a GFP-peptide fusion (GPS, HEK-293T) (PSI 1-6); higher = more stable;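 note: lentivirally expressed fusions sorted by FACS into six bins by GFP to DsRed ratio, PSI derived from sequencing read proportions per bin multiplied by bin number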
- measurement_setup: c terminus: a fixed tail appended
quantity_name: protein stability index
Provide a numeric answer; units are not to be included.

Request: State the recorded protein stability index for this entry: N13R
Result: 3.33

Request: Next variant up: A22M
Result: 2.25

Request: A12H ?
Result: 3.27

Request: Now try V18M .
Result: 3.07

Request: And for G21Q ?
Result: 3.12

Request: Also check N20C
Result: 2.72

Request: Now this one: G21K
Result: 2.71

Request: Field entry: S10L
Result: 1.43

Request: Next record, please: G21D
Result: 2.55

Request: Now the same for V18K
Result: 2.31

Request: Another variant to check: G21T
Result: 3.35

Request: Then what about the variant S16Q ?
Result: 3.76

Request: Now consider V8T .
Result: 3.76

Request: Now the variant R19P
Result: 2.68

Request: Field entry: S10Q
Result: 3.42

Request: What do we get for L11H ?
Result: 2.94

Request: Likewise for R24C ?
Result: 3.21

Request: Moving on to the next variant: V18E
Result: 3.63

Request: Also check R1T
Result: 3.25

Request: Now the same for S16D
Result: 2.86

Request: Input L14E
Result: 3.16

Request: Let us now turn to A6H
Result: 2.69
